Target: Rat α4β2 (Rattus norvegicus, UniProt P09483+P12390)
Construct: Preparation of membranes from rat tissues; Rat cortices were obtained from Analytical Biological Services; tissue Analytical Biological Services, Incorporated (ABS, Wilmington, Del.); host or cells: rat cortex membranes (female Sprague-Dawley)
Experiment: Competition binding to rat α4β2 receptors in membrane preparations
Conditions: membranes, [3H]-epibatidine competition; Ki by Cheng-Prusoff; read-out: Rat α4β2 Ki
Measured Ki accompanies every entry in the list below.
Reply with the number, then its unit.

Examples with their reported Ki follow.
Cc1cncc(N2CC3CN(C)CC(C2)O3)c1: 370 nM
CN1CC2CN(c3cncc(Oc4ccccc4Cl)c3)CC(C1)O2: 1200 nM
N#Cc1ccc(N2CC3CNCC(C2)O3)cn1: 290 nM

# input for lookup
Form field: Ki recorded for COc1cccc(N2CC3CNCC(C2)O3)c1 with Rat α4β2 (Rattus norvegicus, UniProt P09483+P12390) (enter value)
110 nM
